assay: Inhibition of recombinant perforin-mediated lysis of Jurkat cells assessed as [51Cr] release preincubated with perforin for 30 mins followed by incubation with [51Cr]-labeled Jurkat cells by gamma counting
Property Name: IC50

Input: Tell me the measured IC50 of O=C1NC(=S)NC1=Cc1ccc(-c2ccc3c(c2)COC3=O)s1 , please.
Output: 780 nM

Input: Now give it for O=C1NC(=O)C(=Cc2ccc(-c3ccc4c(c3)COC4=O)s2)C(=O)N1 too.
Output: 800 nM

Input: Now give it for O=C1NC(=S)NC1=Cc1cc2cc(-c3ccc4c(c3)COC4=O)ccc2[nH]1 too.
Output: 820 nM
